- System: L1210 leukemia ip in BDF1 mice, survival T/C
- measurement notes: NCI In Vivo Anticancer Drug Screen. Data for tumor model L1210 Leukemia (intraperitoneal) in B6D2F1 (BDF1) mice
- details: endpoint: mean survival time; dose: 100.0 mg/kg/injection; schedule: Q04DX002 (ip); vehicle: saline with Tween-80; higher = longer survival
Inconclusive results and toxic doses are left out.
As shown below, each of these compounds has a reported T/C value.

Give T/C for CC(=O)Nc1ncccn1 tested on L1210 leukemia ip in BDF1 mice, survival T/C.
98 % of control

Give T/C for Nc1ccn(CC(=O)c2cc3ccccc3[nH]2)c(=O)n1 tested on L1210 leukemia ip in BDF1 mice, survival T/C.
101 % of control

Give T/C for CN(C)P(=O)(Oc1c(Cl)c(Cl)c(Cl)c(Cl)c1Cl)Oc1c(Cl)c(Cl)c(Cl)c(Cl)c1Cl tested on L1210 leukemia ip in BDF1 mice, survival T/C.
107 % of control

Give T/C for CCCCCCCCCCCCCCCCCC(=O)Oc1cccc2cccnc12 tested on L1210 leukemia ip in BDF1 mice, survival T/C.
93 % of control

Give T/C for CN(C)c1n[nH]c(N=[N+]=[N-])n1 tested on L1210 leukemia ip in BDF1 mice, survival T/C.
104 % of control

Give T/C for CCC(C)Nc1ccc(NS(=O)(=O)CCl)cc1 (stereo not drawn) tested on L1210 leukemia ip in BDF1 mice, survival T/C.
100 % of control

Give T/C for Cc1cccc(C)c1NC(=O)N1CCN(C)CC1 tested on L1210 leukemia ip in BDF1 mice, survival T/C.
101 % of control

Give T/C for CCNP(=S)(SCC)SCC tested on L1210 leukemia ip in BDF1 mice, survival T/C.
96 % of control

====

- Tested on: L1210 leukemia ip in BDF1 mice, survival T/C
- measurement notes: NCI In Vivo Anticancer Drug Screen. Data for tumor model L1210 Leukemia (intraperitoneal) in B6D2F1 (BDF1) mice
- details: endpoint: mean survival time; dose: 25.0 mg/kg/injection; schedule: Q04DX003 (ip); vehicle: saline; higher = longer survival
Inconclusive results and toxic doses are left out.
As shown below, each of these compounds has a reported T/C value.

Please review the entries below; each comes with its answer.
• CC1(C)CC(=NNC2=NC=NC3=NC=NC32)CC(C)(C)N1O (centres undefined) = 98 % of control
• CCCCNC(C)(C)CO = 97 % of control
• NC(=S)N/N=C/c1ccco1 = 105 % of control
• CCOC(=O)N(C1CCCCC1)P(=O)(OCC)OCC = 107 % of control
• NNC(=O)c1ccncc1 = 108 % of control
• CC(C)(N)CNc1ccccc1 = 97 % of control
• CC1(C)CC(NC(=O)NCCCl)CC(C)(C)N1 = 114 % of control
• CCCC(CCN1CCCC1)(CNC(=O)CN(CC)CC)c1cccc2ccccc12 (centres undefined) = 103 % of control

Now turn to the next compound.
Give reported T/C value for CC(=O)c1ccc2c(c1)Cc1ccccc1-2
105 % of control

====

- Tested on: L1210 leukemia ip in BDF1 mice, survival T/C
- measurement notes: NCI In Vivo Anticancer Drug Screen. Data for tumor model L1210 Leukemia (intraperitoneal) in B6D2F1 (BDF1) mice
- details: endpoint: mean survival time; dose: 100.0 mg/kg/injection; schedule: Q01DX009 (ip); vehicle: Klucel (hydroxypropylcellulose) (HPC); higher = longer survival
Toxic doses and inconclusive results are not listed.
measure: T/C

Please review the entries below; each comes with its answer.
- CN(CCC#N)c1ccc(C=C(C#N)C#N)cc1: 92 % of control
- NC(=O)CNC(=O)OCc1ccccc1: 102 % of control
- CSc1ccccc1C=O: 114 % of control
- CC(C)NC1(C(N)=O)CCN(Cc2ccccc2)CC1: 100 % of control
- Cc1cnc2c(=N)n(C(=O)C(F)(F)F)n(C)c2n1: 104 % of control
- O=C(O)c1c(Br)c(Br)c(Br)c(Br)c1C(=O)Nc1cccc2c(O)cccc12: 110 % of control

Now turn to the next compound.
Give reported T/C value for C=CCSc1nccnc1C
103 % of control

====

- System: L1210 leukemia ip in BDF1 mice, survival T/C
- measurement notes: NCI In Vivo Anticancer Drug Screen. Data for tumor model L1210 Leukemia (intraperitoneal) in B6D2F1 (BDF1) mice
- details: endpoint: mean survival time; dose: 200.0 mg/kg/injection; schedule: Q01DX009 (ip); vehicle: saline with Tween-80; higher = longer survival
Toxic doses and inconclusive results are not listed.
measure: T/C

Give reported T/C value for O=C(NC(=O)c1ccc(Cl)cc1)Nc1ccc(Cl)cc1C(F)(F)F
98 % of control

Give reported T/C value for O=[N+]([O-])c1ccc(N/N=C/c2cccc(CO)c2)c([N+](=O)[O-])c1
95 % of control

Give reported T/C value for Cc1ccc(S(=O)(=O)N/N=C/C(O)C(O)C(O)CO)cc1 (stereo not given)
103 % of control

====

- System: L1210 leukemia ip in BDF1 mice, survival T/C
- measurement notes: NCI In Vivo Anticancer Drug Screen. Data for tumor model L1210 Leukemia (intraperitoneal) in B6D2F1 (BDF1) mice
- details: endpoint: mean survival time; dose: 100.0 mg/kg/injection; schedule: Q01DX009 (ip); vehicle: Klucel (hydroxypropylcellulose) (HPC); higher = longer survival
Toxic doses and inconclusive results are not listed.
measure: T/C

- O=C(NCSC1=NCCS1)NCSC1=NCCS1: 107 % of control
- CCCCCSP(=O)(SCCCCC)c1ccccc1: 91 % of control
- Cn1c(=O)c2[nH]c(Br)nc2n(C)c1=O: 90 % of control

Give T/C for O=C(O)COc1ccccc1OCC(=O)O tested on L1210 leukemia ip in BDF1 mice, survival T/C.
98 % of control

Give T/C for CC(=O)OCCCc1ccccc1 tested on L1210 leukemia ip in BDF1 mice, survival T/C.
94 % of control

Give T/C for c1ccc2c(c1)CCc1cc3c(nc1-2)-c1ccccc1CC3 tested on L1210 leukemia ip in BDF1 mice, survival T/C.
97 % of control

Give T/C for CC(O)COc1ccc(OCc2ccccc2)cc1 (centres undefined) tested on L1210 leukemia ip in BDF1 mice, survival T/C.
98 % of control

Give T/C for CCOC12c3cc(OC)ccc3N(S(=O)(=O)c3ccc(C)cc3)CC1C2(Br)Br (centres undefined) tested on L1210 leukemia ip in BDF1 mice, survival T/C.
97 % of control

Give T/C for O=C(COc1ccc(Cl)cc1Cl)NO tested on L1210 leukemia ip in BDF1 mice, survival T/C.
104 % of control

====

As shown below, each of these molecules has a reported T/C value.
- System: L1210 leukemia ip in BDF1 mice, survival T/C
- measurement notes: NCI In Vivo Anticancer Drug Screen. Data for tumor model L1210 Leukemia (intraperitoneal) in B6D2F1 (BDF1) mice
- details: endpoint: mean survival time; dose: 400.0 mg/kg/injection; schedule: Q04DX002 (ip); vehicle: saline with Tween-80; higher = longer survival
Toxic doses and inconclusive results are not listed.

• CCNP(=S)(SCC)SCC = 101 % of control
• Nc1ccn(CC(=O)c2cc3ccccc3[nH]2)c(=O)n1 = 108 % of control
• CC(=O)Nc1ncccn1 = 98 % of control

Give reported T/C value for c1ccc(COCc2ccc(C3N(c4ccccc4)CCN3c3ccccc3)o2)cc1
104 % of control

Give reported T/C value for O=S(=O)(F)c1cc(Cl)ccc1CBr
101 % of control

Give reported T/C value for O=C(C1CC1c1ccccc1)N1CCC(O)(c2ccccc2)CC1 (stereo unspecified)
97 % of control

Give reported T/C value for O=C(/C=C\c1ccc(Cl)c(Cl)c1)/C=C/c1ccc(Cl)c(Cl)c1
92 % of control

Give reported T/C value for Cc1ccc(Cl)cc1NC(=O)N1C(C)CCCC1C (stereo unspecified)
102 % of control

Give reported T/C value for O=C(NC(=S)Nc1ccc(O)cc1)c1cccc([N+](=O)[O-])c1
90 % of control

Give reported T/C value for O=S(=O)(CCCCl)Nc1ccccn1
93 % of control

Give reported T/C value for CCOC(=O)C(C)C1(c2ccccc2)OC(=O)c2ccccc21 (stereo unspecified)
97 % of control

====

As shown below, each of these molecules has a reported T/C value.
- Test system: L1210 leukemia ip in BDF1 mice, survival T/C
- measurement notes: NCI In Vivo Anticancer Drug Screen. Data for tumor model L1210 Leukemia (intraperitoneal) in B6D2F1 (BDF1) mice
- details: endpoint: mean survival time; dose: 200.0 mg/kg/injection; schedule: Q04DX002 (ip); vehicle: Klucel (hydroxypropylcellulose) (HPC); higher = longer survival
Toxic doses and inconclusive results are not listed.

* CCCCCCCC(CC(=O)O)OC(=O)CC(CCCCCCC)OC1OC(C)C(O)C(O)C1OC1OC(C)C(O)C(O)C1O (centres undefined) | 102 % of control
* N#CC1c2ccccc2-c2ccccc2N1C(=O)c1ccccc1 (centres undefined) | 96 % of control
* O=C(Nc1ccc2ccccc2c1)C1CC1 | 107 % of control
* Cc1ccc(NC(=O)Oc2ccccc2C(=O)OCc2ccccc2)cc1 | 88 % of control
* COc1ccc(/C=N\NC(=O)c2ccncc2)cc1O | 106 % of control
* Cc1cnc(NC#N)nc1-c1ccccc1O | 98 % of control
* COc1cc(N)c2ncsc2c1 | 88 % of control
* CCCCn1cc(COCC)c(=O)[nH]c1=O | 98 % of control

Now turn to the next molecule.
Give reported T/C value for C=CC1=C(C)C(=O)N/C1=C\c1[nH]c(Cc2[nH]c(/C=C3/NC(=O)C(C(C)SC(C)=O)=C3C)cc2CCC(=O)O)c(CCC(=O)O)c1C (centres undefined)
108 % of control

Ref: PubChem BioAssay AID248
